- Study System: hROMK (hKir1.1) (Homo sapiens, UniProt P48048)
- Sequence (P48048 1-391): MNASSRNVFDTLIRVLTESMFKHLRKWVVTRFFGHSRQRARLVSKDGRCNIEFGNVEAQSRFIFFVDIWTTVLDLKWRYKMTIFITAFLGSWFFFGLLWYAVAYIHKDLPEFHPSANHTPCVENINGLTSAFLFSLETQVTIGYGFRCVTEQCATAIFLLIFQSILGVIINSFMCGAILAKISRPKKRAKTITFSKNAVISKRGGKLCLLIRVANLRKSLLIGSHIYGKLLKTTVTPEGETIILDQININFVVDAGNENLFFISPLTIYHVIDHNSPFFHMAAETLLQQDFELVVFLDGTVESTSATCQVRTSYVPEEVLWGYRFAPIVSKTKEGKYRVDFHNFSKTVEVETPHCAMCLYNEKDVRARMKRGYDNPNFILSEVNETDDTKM
- Method Notes: Thallium Flux Assay (ROMK channel functional thallium flux assay, FLIPR-Tetra)
- Measurement Context: HEK293 cells stably expressing hROMK; 30 min incubation with compound
Our labelling divides records by IC50 into ranges: c1 = under 100 nM, c2 = from 100 nM up to 200 nM, c3 = 200 nM and over

Please review the entries below; each comes with its answer.
compound=Cc1cc(C#N)ccc1-c1ncc2c(n1)CCN(CCc1ccc3c(c1C)COC3=O)C2 assigned_label=c3
compound=Cc1c(CCN2CCc3c(cnn3-c3ccc(C#N)c(F)c3)C2)ccc2c1COC2=O assigned_label=c1
compound=Cc1c(CCN2CCc3nc(-c4ccc(F)c(C#N)c4)ncc3C2)ccc2c1COC2=O assigned_label=c3

Would you mind sorting `COc1ccc(-c2ncc3c(n2)CCN(CCc2ccc4c(c2C)COC4=O)C3)cc1C#N` into the appropriate category?
c3

====

- Study System: ROMK (Kir1.1) (Homo sapiens, UniProt P48048)
- Sequence (P48048 1-391): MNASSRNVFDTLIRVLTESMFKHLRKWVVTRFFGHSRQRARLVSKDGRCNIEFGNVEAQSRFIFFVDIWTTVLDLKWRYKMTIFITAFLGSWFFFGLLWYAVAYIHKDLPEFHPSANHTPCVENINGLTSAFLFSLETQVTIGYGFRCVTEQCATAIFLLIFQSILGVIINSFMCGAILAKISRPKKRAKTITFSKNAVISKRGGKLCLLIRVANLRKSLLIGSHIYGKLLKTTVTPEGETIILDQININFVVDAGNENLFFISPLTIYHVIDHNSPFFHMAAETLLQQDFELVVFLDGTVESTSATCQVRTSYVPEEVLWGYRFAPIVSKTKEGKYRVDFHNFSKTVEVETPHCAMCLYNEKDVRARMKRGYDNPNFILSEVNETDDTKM
- Method Notes: 86Rb+ Efflux Assay, described in WO2013/062892 at pages 79-80
- Measurement Context: values marked "(Rb)" in Table 10
Readout Type: IC50
Write the quantity with the unit trailing the number.

Answered cases to consult:
compound=Cc1c(CCN2CCc3nc(-c4ccc5c(c4)COC5=O)ncc3C2)ccc2c1COC2=O study_system="ROMK (Kir1.1) (Homo sapiens, UniProt P48048)" test_result="96.1 nM"
compound=N#Cc1ccc(-n2ncc3c2CCN(CCc2ccc4c(c2)COC4=O)C3)cc1 study_system="ROMK (Kir1.1) (Homo sapiens, UniProt P48048)" test_result="501 nM"
compound=Cc1c(CCN2CCc3nc(-c4ccc(C#N)cc4)ncc3C2)ccc2c1COC2=O study_system="ROMK (Kir1.1) (Homo sapiens, UniProt P48048)" test_result="304 nM"
compound="Cc1c(C(O)CN2CCc3nc(-c4ccc5c(c4)COC5=O)ncc3C2)ccc2c1COC2=O (centres unmarked)" study_system="ROMK (Kir1.1) (Homo sapiens, UniProt P48048)" test_result="69.9 nM"
compound=COc1cc(-c2cn3c(n2)CN(CCc2ccc4c(c2C)COC4=O)CC3)ccc1C#N study_system="ROMK (Kir1.1) (Homo sapiens, UniProt P48048)" test_result="197 nM"
compound=Cc1c(CCN2CCc3c(cnn3-c3ccc(-n4cnnn4)cc3)C2)ccc2c1COC2=O study_system="ROMK (Kir1.1) (Homo sapiens, UniProt P48048)" test_result="380 nM"

Lookup result for `Cc1c(CCN2CCc3c(cnn3-c3ccc4c(c3)COC4=O)C2)ccc2c1COC2=O` ; measured IC50: 66 nM

Lookup result for `N#Cc1ccc(-c2ncc3c(n2)CCN(CCc2ccc4c(c2)COC4=O)C3)cc1` ; measured IC50: 306 nM

====

- Study System: hROMK (hKir1.1) (Homo sapiens)
- Method Notes: Thallium Flux Assay (ROMK channel functional thallium flux assay, FLIPR-Tetra)
- Measurement Context: HEK293 cells stably expressing hROMK; 30 min incubation with compound
This listing pairs molecules with measured IC50.
Only the number, expressed in nM, is required.

molecule=Cc1c(CCN2CCc3nc(-c4ccc(C#N)c(F)c4)ncc3C2)ccc2c1COC2=O test_result=70.2
molecule=Cc1c(CCN2CCn3nc(-c4ccc5c(c4)COC5=O)nc3C2)ccc2c1COC2=O test_result=89
molecule="Cc1cc(C#N)ccc1C1C[C@H]2CN(C[C@H](O)c3ccc4c(c3C)COC4=O)CCN2C1 (stereo partly shown)" test_result=131
molecule="Cc1c(C(O)CN2CCn3c(nn(-c4ccc(C#N)c(F)c4)c3=O)C2)ccc2c1COC2=O (stereo not shown)" test_result=163
molecule="Cc1c(C(O)CN2CCn3c(nn(-c4ccc5c(c4)COC5=O)c3=O)C2)ccc2c1COC2=O (stereo not shown)" test_result=291
molecule=N#Cc1ccc(-n2cc3c(n2)CCN(CCc2ccc4c(c2)COC4=O)C3)cc1 test_result=43.8

Let us move to another entry and its IC50.
Lookup result for `Cc1c(CCN2CCn3cc(-c4ccc5c(c4)CCOC5=O)nc3C2)ccc2c1COC2=O` ; measured IC50: 654

====

- Study System: hROMK (hKir1.1) (Homo sapiens)
- Construct: expressed in transfected cells
- Sequence (P48048 1-391): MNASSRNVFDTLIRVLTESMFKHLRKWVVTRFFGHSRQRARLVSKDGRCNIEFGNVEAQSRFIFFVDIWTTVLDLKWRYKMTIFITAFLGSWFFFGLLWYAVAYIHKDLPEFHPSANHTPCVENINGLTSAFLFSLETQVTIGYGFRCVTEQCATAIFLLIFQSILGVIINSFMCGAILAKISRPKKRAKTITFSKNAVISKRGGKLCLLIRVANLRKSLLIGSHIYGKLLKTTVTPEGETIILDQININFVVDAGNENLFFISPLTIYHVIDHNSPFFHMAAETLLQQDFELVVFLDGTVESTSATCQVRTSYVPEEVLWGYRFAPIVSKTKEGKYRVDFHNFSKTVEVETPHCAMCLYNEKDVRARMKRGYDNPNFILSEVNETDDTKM
- Method Notes: Thallium Flux Assay (ROMK channel functional thallium flux assay, FLIPR-Tetra)
- Type: cell-based
- Measurement Context: HEK293 cells stably expressing hROMK; 30 min incubation with compound
We label by threshold. Values of IC50 strictly beneath 0.2 µM are Y. Values of 0.2 µM and up are N.

Please review the entries below; each comes with its answer.
molecule="Cc1c(C(O)CN2CCc3nc(-c4ccc(C#N)cc4F)ncc3C2)ccc2c1COC2=O (stereo not shown)" assigned_label=N
molecule=Cc1c(CCN2CCc3nc(-c4ccc(C#N)cc4F)ncc3C2)ccc2c1COC2=O assigned_label=N
molecule=Cc1c(CCN2CCn3c(nn(-c4ccc5c(c4)COC5=O)c3=O)C2)ccc2c1COC2=O assigned_label=Y

Here's an entry: `COc1cc(-c2ncc3c(n2)CCN(CCc2ccc4c(c2C)COC4=O)C3)ccc1C#N` . Is its IC50 below 0.2 µM?
Y

Here's an entry: `Cc1c(CCN2CCc3nc(-c4ccc5c(c4)COC5=O)oc3C2)ccc2c1COC2=O` . Is its IC50 below 0.2 µM?
Y

====

- Study System: hROMK (hKir1.1) (Homo sapiens)
- Method Notes: Thallium Flux Assay (ROMK channel functional thallium flux assay, FLIPR-Tetra)
- Measurement Context: HEK293 cells stably expressing hROMK; 30 min incubation with compound
Readout Type: IC50 (nM)
Only the number, expressed in nM, is required.

Lookup result for `C[C@H]1Cc2cc(CCN3CCn4cc(-c5ccc6c(c5)COC6=O)nc4C3)ccc2C(=O)O1` ; measured IC50: 198

Lookup result for `CC1=C(N2CC3=C(CCN(C[C@H](O)c4ccc5c(c4C)COC5=O)CC3)C2=O)COC1=O` ; measured IC50: 64

====

- Study System: hROMK (hKir1.1) (Homo sapiens, UniProt P48048)
- Method Notes: Thallium Flux Assay (ROMK channel functional thallium flux assay, FLIPR-Tetra)
- Measurement Context: HEK293 cells stably expressing hROMK; 30 min incubation with compound
Readout Type: pIC50
API: returns pIC50 as number; meaning -log10 of concentration in mol/L.

Answered cases to consult:
molecule="Cc1c(CCN2CCn3c(nn(-c4ccc(C#N)c(F)c4)c3=O)C2)ccc2c1COC2=O [Example 24]" study_system="hROMK (hKir1.1) (Homo sapiens, UniProt P48048)" readout_type=pIC50 test_result=6.75
molecule="Cc1c([C@@H](O)CN2CCc3cc(-c4ccc5c(c4)C[C@H](C)OC5=O)ccc3C2)ccc2c1COC2=O [Example 47]" study_system="hROMK (hKir1.1) (Homo sapiens, UniProt P48048)" readout_type=pIC50 test_result=6.60
molecule="Cc1c(CCN2CC[C@H]3[C@@H](C2)OC(=O)N3Cc2ccc3c(c2C)COC3=O)ccc2c1COC2=O [Example 28]" study_system="hROMK (hKir1.1) (Homo sapiens, UniProt P48048)" readout_type=pIC50 test_result=6.95

The molecule Cc1c(C(O)CN2CCn3cc(-c4ccc5c(c4)COC5=O)nc3C2)ccc2c1COC2=O (stereo not drawn) [Example 34] , when measured on hROMK (hKir1.1) (Homo sapiens, UniProt P48048), yielded pIC50 of 7.00

The molecule Cc1c([C@@H](O)CN2CCc3c(-c4ccc(C#N)c(F)c4)n[nH]c3C2)ccc2c1COC2=O [Example 42] , when measured on hROMK (hKir1.1) (Homo sapiens, UniProt P48048), yielded pIC50 of 6.76

The molecule Cc1cc(C#N)ccc1-c1ncc2c(n1)CCN(CC(O)c1ccc3c(c1C)COC3=O)C2 (stereo not drawn) [Example 39] , when measured on hROMK (hKir1.1) (Homo sapiens, UniProt P48048), yielded pIC50 of 6.47

Attribution: patent US10000484B2
